meta.source: patent US20200231684A1

Target: T1, human IL-36R on cells (human, UniProt Q9HB29 20-575)
T1 sequence (looked up): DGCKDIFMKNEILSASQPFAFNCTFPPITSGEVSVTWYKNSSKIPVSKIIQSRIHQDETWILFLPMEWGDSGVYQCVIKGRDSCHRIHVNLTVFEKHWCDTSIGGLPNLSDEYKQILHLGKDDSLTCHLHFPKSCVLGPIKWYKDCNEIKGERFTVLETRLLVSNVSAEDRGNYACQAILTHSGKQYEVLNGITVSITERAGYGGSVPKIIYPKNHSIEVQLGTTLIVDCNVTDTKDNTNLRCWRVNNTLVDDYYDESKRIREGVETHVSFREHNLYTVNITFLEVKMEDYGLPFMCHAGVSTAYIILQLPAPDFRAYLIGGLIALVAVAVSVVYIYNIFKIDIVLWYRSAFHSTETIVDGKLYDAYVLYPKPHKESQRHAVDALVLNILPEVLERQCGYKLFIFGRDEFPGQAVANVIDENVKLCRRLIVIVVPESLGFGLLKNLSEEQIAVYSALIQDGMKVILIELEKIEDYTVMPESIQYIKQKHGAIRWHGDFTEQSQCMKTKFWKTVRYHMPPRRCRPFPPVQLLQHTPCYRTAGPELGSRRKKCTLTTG
Experiment: cell-based or functional assay
Recorded IC90, pNFκB, human primary keratinocytes (NHK), trun-IL-36b, one value per entry.
Assay endpoint: IC90, pNFκB, human primary keratinocytes (NHK), trun-IL-36b (nM)

{"columns": ["Binder", "Unit text", "Meas value"],
 "data": [
  ["antibody 33D10 (antibody, V domains shown, Mouse monoclonal from hybridoma; also called 33D10B12; Mouse 33D10) VH: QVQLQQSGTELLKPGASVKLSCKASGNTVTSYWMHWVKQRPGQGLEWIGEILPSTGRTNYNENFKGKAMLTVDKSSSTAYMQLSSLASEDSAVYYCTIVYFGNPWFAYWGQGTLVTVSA VL: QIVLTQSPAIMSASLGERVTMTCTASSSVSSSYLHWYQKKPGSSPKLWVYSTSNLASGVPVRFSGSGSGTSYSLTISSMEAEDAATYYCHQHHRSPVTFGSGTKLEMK", "nM", 2.3],
  ["antibody 73F6 (antibody, V domains shown, Mouse monoclonal from hybridoma; also called 73F6F8; Mouse 73F6) VH: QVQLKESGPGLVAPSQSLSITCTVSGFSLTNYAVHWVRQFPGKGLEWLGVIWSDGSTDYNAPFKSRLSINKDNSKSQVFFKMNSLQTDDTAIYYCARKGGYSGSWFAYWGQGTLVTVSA VL: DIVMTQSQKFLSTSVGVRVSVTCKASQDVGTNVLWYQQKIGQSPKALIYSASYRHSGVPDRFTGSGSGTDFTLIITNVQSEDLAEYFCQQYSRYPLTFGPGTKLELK", "nM", 5.2],
  ["antibody 73C5 (antibody, V domains shown, Mouse monoclonal from hybridoma; also called 73C5C10; Mouse 73C5) VH: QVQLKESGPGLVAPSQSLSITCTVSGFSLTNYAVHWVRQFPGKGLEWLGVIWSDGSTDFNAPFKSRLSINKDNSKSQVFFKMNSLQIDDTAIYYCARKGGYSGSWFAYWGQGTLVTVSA VL: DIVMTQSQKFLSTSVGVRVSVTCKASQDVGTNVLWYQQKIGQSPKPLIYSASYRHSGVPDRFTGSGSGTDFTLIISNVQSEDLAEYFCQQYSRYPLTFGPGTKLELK", "nM", 14.4],
  ["antibody 78C8 (antibody, V domains shown, Mouse monoclonal from hybridoma; also called 78C8D1; Mouse 78C8) VH: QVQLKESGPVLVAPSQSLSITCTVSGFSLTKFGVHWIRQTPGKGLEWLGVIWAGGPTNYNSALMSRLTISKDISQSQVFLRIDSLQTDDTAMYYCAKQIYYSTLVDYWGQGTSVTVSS VL: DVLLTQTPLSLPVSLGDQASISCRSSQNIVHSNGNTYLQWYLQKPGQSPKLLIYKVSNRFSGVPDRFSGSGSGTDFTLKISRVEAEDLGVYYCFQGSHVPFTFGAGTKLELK", "nM", 14.2],
  ["antibody 81B4 (antibody, V domains shown, Mouse monoclonal from hybridoma; also called 81B4E11; Mouse 81B4) VH: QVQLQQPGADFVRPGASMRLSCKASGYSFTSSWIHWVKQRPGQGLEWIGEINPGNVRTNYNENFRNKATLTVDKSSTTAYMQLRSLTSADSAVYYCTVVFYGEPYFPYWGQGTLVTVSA VL: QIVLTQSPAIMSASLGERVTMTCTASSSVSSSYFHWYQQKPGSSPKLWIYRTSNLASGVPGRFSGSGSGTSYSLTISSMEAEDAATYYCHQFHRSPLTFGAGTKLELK", "nM", 1.1]
]}
